measurement_target: NLRP3 (Homo sapiens, UniProt Q96P20)
Construct: Seed THP-1 cells (5.56*10^5 cells/mL) containing 1.0 ug/mL LPS; endogenous in cells
Sequence (Q96P20 whole entry): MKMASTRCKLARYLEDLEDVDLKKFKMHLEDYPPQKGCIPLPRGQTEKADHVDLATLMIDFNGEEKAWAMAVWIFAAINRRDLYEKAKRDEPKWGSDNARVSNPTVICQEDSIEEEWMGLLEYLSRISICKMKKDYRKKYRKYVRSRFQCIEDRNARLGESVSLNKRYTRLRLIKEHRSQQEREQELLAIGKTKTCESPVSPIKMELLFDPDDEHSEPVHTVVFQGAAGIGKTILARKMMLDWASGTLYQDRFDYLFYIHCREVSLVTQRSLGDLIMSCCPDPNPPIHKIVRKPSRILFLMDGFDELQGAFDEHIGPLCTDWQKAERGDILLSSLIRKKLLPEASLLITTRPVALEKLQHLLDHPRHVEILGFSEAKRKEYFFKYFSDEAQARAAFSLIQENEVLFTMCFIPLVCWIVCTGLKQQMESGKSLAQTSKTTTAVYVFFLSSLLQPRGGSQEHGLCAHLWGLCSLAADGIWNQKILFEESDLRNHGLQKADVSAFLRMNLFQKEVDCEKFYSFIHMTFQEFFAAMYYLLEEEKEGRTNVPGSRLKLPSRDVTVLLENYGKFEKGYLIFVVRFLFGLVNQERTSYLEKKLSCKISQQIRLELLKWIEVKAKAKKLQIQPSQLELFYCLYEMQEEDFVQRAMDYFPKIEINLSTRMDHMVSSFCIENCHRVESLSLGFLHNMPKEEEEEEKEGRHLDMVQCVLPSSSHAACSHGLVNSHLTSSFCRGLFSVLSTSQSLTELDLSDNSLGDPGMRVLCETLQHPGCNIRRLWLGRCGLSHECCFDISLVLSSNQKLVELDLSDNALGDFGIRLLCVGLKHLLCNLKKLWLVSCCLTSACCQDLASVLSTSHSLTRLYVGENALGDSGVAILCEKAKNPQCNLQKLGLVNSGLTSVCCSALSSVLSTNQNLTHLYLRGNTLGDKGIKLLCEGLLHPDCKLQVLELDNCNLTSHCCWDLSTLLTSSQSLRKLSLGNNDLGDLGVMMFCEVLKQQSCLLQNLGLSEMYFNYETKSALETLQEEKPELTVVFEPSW
test_summary: THP-1 cell assay (LPS priming, nigericin), IL1β release by HTRF; called pyroptosis assay, THP IC50
run_parameters: NLRP3 inhibitory activity; THP-1 cells, 1.0 ug/mL LPS, compound 3 hrs, nigericin 5 uM 1 hr, IL1β in supernatant
pIC50: −log10 of the molar value.
Catalogue of pIC50 readings, one per entry.

[
  {
    "compound": "Cc1cc2c(c(NC(=O)NS(=O)(=O)c3cc(C(C)(C)O)cs3)c1-c1ccn3nccc3c1)CCC2 [Example 70]",
    "pIC50": "≥ 7.52"
  },
  {
    "compound": "CO[C@H](C)Cn1ccc(S(=O)(=O)NC(=O)Nc2c3c(cc(C)c2-c2ccn4nccc4c2)CCC3)n1 [Example 27]",
    "pIC50": "≥ 7.52"
  },
  {
    "compound": "CC(C)(O)c1csc(S(=O)(=O)NC(=O)Nc2c(-c3ccc4ncnn4c3)ccc3c2CCC3)c1 [Example 52]",
    "pIC50": "≥ 7.52"
  },
  {
    "compound": "Cn1ccc2c(-c3ccc4c(c3NC(=O)NS(=O)(=O)c3cnn(CC5CC5)c3)CCC4)ccnc21 [Example 4]",
    "pIC50": "6.52 to 7.52"
  },
  {
    "compound": "Cc1cc2c(c(NC(=O)NS(=O)(=O)C3CC(OC4CC4)C3)c1-c1ccnc3[nH]ccc13)CCC2 (stereo not drawn) [Example 3]",
    "pIC50": "6.52 to 7.52"
  },
  {
    "compound": "CO[C@@H](C)Cn1ccc(S(=O)(=O)NC(=O)Nc2c3c(cc(C)c2-c2ccn4nccc4c2)CCC3)n1 [Example 26]",
    "pIC50": "≥ 7.52"
  }
]
